Where these numbers come from: ChEMBL document CHEMBL5150051

# MEASURED TARGET: Protein cereblon/Indoleamine 2,3-dioxygenase 1 (Homo sapiens, UniProt P14902+Q96SW2)
# Sequence (P14902 whole entry, looked up): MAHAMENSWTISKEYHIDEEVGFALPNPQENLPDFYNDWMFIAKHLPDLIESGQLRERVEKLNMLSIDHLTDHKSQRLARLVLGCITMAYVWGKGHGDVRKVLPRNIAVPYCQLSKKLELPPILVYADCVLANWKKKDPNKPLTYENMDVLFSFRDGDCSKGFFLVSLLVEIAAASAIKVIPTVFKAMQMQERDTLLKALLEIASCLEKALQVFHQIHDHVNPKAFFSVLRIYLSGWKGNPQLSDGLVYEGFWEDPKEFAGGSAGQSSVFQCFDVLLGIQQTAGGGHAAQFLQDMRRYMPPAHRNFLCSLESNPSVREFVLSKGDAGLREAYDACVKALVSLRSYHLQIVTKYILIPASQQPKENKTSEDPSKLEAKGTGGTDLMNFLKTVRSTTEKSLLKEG
# Sequence (Q96SW2 whole entry, looked up): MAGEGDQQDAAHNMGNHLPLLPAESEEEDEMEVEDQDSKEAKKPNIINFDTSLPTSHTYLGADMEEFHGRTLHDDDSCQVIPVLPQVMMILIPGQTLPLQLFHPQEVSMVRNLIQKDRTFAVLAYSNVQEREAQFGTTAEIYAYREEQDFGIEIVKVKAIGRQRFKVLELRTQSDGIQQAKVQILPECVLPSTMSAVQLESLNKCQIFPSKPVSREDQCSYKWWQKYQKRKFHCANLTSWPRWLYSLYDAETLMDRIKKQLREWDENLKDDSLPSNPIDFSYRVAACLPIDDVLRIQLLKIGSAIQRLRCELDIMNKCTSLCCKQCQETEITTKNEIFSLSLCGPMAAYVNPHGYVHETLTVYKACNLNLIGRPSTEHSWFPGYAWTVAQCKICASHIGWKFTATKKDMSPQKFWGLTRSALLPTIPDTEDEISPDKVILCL
# PROTOCOL: Protac activity at IDO1/CRBN in IFNgamma-stimulated human U87 cells assessed as IDO1 degradation at 10 uM measured after 24 hrs by Western blotting analysis relative to control
# Assay type: cell-based
PROPERTY: Activity (%)
Give the value, in units of %, as a plain number.

COMPOUND	MEASURED TARGET	Activity (%)
C[C@@H](C(=O)Nc1ccc(OCCCCOc2cccc3c2C(=O)N(C2CCC(=O)NC2=O)C3=O)cc1)[C@H]1CC[C@@H](c2ccnc3ccc(F)cc32)CC1 (stereo partly specified)	Protein cereblon/Indoleamine 2,3-dioxygenase 1 (Homo sapiens, UniProt P14902+Q96SW2)	0

Consider now this further compound.
QUERY: Looking for the measured Activity of C[C@@H](C(=O)Nc1ccc(OCCCCNC(=O)COc2cccc3c2C(=O)N(C2CCC(=O)NC2=O)C3=O)cc1)[C@H]1CC[C@@H](c2ccnc3ccc(F)cc32)CC1 (stereo partly specified) , can you help?
RESULT: 10

----------
# MEASURED TARGET: Protein cereblon/Indoleamine 2,3-dioxygenase 1 (Homo sapiens, UniProt P14902+Q96SW2)
# PROTOCOL: Protac activity at IDO1/CRBN in IFNgamma-stimulated human U87 cells assessed as IDO1 degradation at 10 uM measured after 24 hrs by Western blotting analysis relative to control
# Format: cell-based
PROPERTY: Activity (%)
Give the value, in units of %, as a plain number.

Example entries and their recorded answers appear below.
COMPOUND	UNIT ABBREV	Activity
C[C@@H](C(=O)Nc1ccc(Cl)c(OCCCNC(=O)COc2cccc3c2C(=O)N(C2CCC(=O)NC2=O)C3=O)c1)[C@H]1CC[C@@H](c2ccnc3ccc(F)cc32)CC1 (some centres undefined)	%	67
C[C@@H](C(=O)Nc1ccc(Cl)c(OCCOCCOCCOCCOCCOCCNC(=O)COc2cccc3c2C(=O)N(C2CCC(=O)NC2=O)C3=O)c1)[C@H]1CC[C@@H](c2ccnc3ccc(F)cc32)CC1 (some centres undefined)	%	0
C[C@@H](C(=O)Nc1ccc(Cl)c(OCCCCCCNC(=O)COc2cccc3c2C(=O)N(C2CCC(=O)NC2=O)C3=O)c1)[C@H]1CC[C@@H](c2ccnc3ccc(F)cc32)CC1 (some centres undefined)	%	0

Consider now this further compound.
QUERY: Record C[C@@H](C(=O)Nc1ccc(Cl)c(OCCOCCOCCOCCOCCNc2cccc3c2C(=O)N(C2CCC(=O)NC2=O)C3=O)c1)[C@H]1CC[C@@H](c2ccnc3ccc(F)cc32)CC1 (some centres undefined) : what is its Activity with Protein cereblon/Indoleamine 2,3-dioxygenase 1 (Homo sapiens, UniProt P14902+Q96SW2)?
RESULT: 0
